Give measured body weight for each item. Keep answers brief.
# EXPERIMENT NOTES: Body and organ weights of cynomolgus monkeys (Example 46)
# Assay type: in vivo
# MEASUREMENT CONDITIONS: day 1
Strand notation (5' to 3'): a small letter for the sugar, then the base; units joined by * are phosphorothioate-linked, units joined directly phosphodiester-linked; [ ] holds rarer units or linkages, { } end groups; capitals alone tell only the bases. e = 2'-O-(2-methoxyethyl) (MOE); [5mC] = 5-methylcytosine; d = 2'-deoxy (DNA)
Give bare numbers, in g.

Some solved entries appear below for comparison.
# SUBSTANCE, UNIT SYMBOL, OBSERVED MEASUREMENT
records = [
    ("ISIS 449710: 3-8-3, 4-8-4, 2-10-2, 3-10-3 or 4-10-4 MOE microwalk gapmer (Table 46) (antisense e[5mC]*eA*e[5mC]*dA*dG*dT*dT*dT*d[5mC]*dT*dG*dG*d[5mC]*eA*eG*eG)", "g", 2131),
    ("ISIS 449708: 3-8-3, 4-8-4, 2-10-2, 3-10-3 or 4-10-4 MOE microwalk gapmer (Table 46) (antisense eA*e[5mC]*eA*dG*dT*dT*dT*d[5mC]*dT*dG*dG*e[5mC]*eA*eG)", "g", 2130),
    ("ISIS 445522: 5-8-5 or 6-8-6 MOE microwalk gapmer (Table 44) (antisense eG*e[5mC]*eA*e[5mC]*eA*dG*dT*dT*dT*d[5mC]*dT*dG*dG*e[5mC]*eA*eG*eG*e[5mC])", "g", 2047),
    ("ISIS 445531: 5-8-5 or 6-8-6 MOE microwalk gapmer (Table 44) (antisense eG*eG*e[5mC]*eA*eT*dT*dG*dG*dT*dG*d[5mC]*dA*d[5mC]*eA*eG*eT*eT*eT)", "g", 2125),
    ("ISIS 449707: 3-8-3, 4-8-4, 2-10-2, 3-10-3 or 4-10-4 MOE microwalk gapmer (Table 46) (antisense e[5mC]*eA*e[5mC]*eA*dG*dT*dT*dT*d[5mC]*dT*dG*dG*e[5mC]*eA*eG*eG)", "g", 2107),
    ("ISIS 416858: MOE gapmer, nucleobases 1275 to 1318 of SEQ ID NO: 1 (Table 8) (antisense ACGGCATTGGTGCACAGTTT; MOE gapmer, wing and gap sizes not given here)", "g", 2115),
]

Batch: body weight for all items listed.
1. ISIS 416850: MOE gapmer, nucleobases 1275 to 1318 of SEQ ID NO: 1 (Table 8) (antisense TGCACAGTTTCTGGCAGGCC; MOE gapmer, wing and gap sizes not given here)
2. ISIS 449711: 3-8-3, 4-8-4, 2-10-2, 3-10-3 or 4-10-4 MOE microwalk gapmer (Table 46) (antisense eA*e[5mC]*dA*dG*dT*dT*dT*d[5mC]*dT*dG*dG*d[5mC]*eA*eG)
3. ISIS 449709: 3-8-3, 4-8-4, 2-10-2, 3-10-3 or 4-10-4 MOE microwalk gapmer (Table 46) (antisense eG*e[5mC]*eA*e[5mC]*dA*dG*dT*dT*dT*d[5mC]*dT*dG*dG*d[5mC]*eA*eG*eG*e[5mC])

2083
2123
2112

----------
# System: blood coagulation
# EXPERIMENT NOTES: PT and aPTT assay in cynomolgus monkeys (Example 46)
# Assay type: in vivo
# MEASUREMENT CONDITIONS: Day 31; platelet poor plasma; relative to PBS group
Strand notation (5' to 3'): a small letter for the sugar, then the base; units joined by * are phosphorothioate-linked, units joined directly phosphodiester-linked; [ ] holds rarer units or linkages, { } end groups; capitals alone tell only the bases. e = 2'-O-(2-methoxyethyl) (MOE); [5mC] = 5-methylcytosine; d = 2'-deoxy (DNA)
MEASURED METRIC: aPTT ratio relative to PBS group

Some solved entries appear below for comparison.
# SUBSTANCE, MEASURED METRIC, OBSERVED MEASUREMENT
records = [
    ("ISIS 449711: 3-8-3, 4-8-4, 2-10-2, 3-10-3 or 4-10-4 MOE microwalk gapmer (Table 46) (antisense eA*e[5mC]*dA*dG*dT*dT*dT*d[5mC]*dT*dG*dG*d[5mC]*eA*eG)", "aPTT ratio relative to PBS group", 0.89),
    ("ISIS 449710: 3-8-3, 4-8-4, 2-10-2, 3-10-3 or 4-10-4 MOE microwalk gapmer (Table 46) (antisense e[5mC]*eA*e[5mC]*dA*dG*dT*dT*dT*d[5mC]*dT*dG*dG*d[5mC]*eA*eG*eG)", "aPTT ratio relative to PBS group", 1.04),
    ("ISIS 449709: 3-8-3, 4-8-4, 2-10-2, 3-10-3 or 4-10-4 MOE microwalk gapmer (Table 46) (antisense eG*e[5mC]*eA*e[5mC]*dA*dG*dT*dT*dT*d[5mC]*dT*dG*dG*d[5mC]*eA*eG*eG*e[5mC])", "aPTT ratio relative to PBS group", 1.08),
]

Now, please, on to the next substance.
Item ISIS 449707: 3-8-3, 4-8-4, 2-10-2, 3-10-3 or 4-10-4 MOE microwalk gapmer (Table 46) (antisense e[5mC]*eA*e[5mC]*eA*dG*dT*dT*dT*d[5mC]*dT*dG*dG*e[5mC]*eA*eG*eG) has what recorded aPTT ratio relative to PBS group?
0.95

----------
Give measured MCV for each item. Keep answers brief.
# EXPERIMENT NOTES: Hematology assays in cynomolgus monkeys (Example 45)
# Assay type: in vivo
# MEASUREMENT CONDITIONS: day 57; escalating dose regimen
One number for each entry, in fL.

Some solved entries appear below for comparison.
# SUBSTANCE, UNIT SYMBOL, MCV
measured = [
    ("ISIS 416858: MOE gapmer, nucleobases 1275 to 1318 of SEQ ID NO: 1 (Table 8) (antisense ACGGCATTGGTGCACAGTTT; MOE gapmer, wing and gap sizes not given here)", "fL", 74),
    ("ISIS 416838: MOE gapmer, nucleobases 1018 to 1042 of SEQ ID NO: 1 (Table 6) (antisense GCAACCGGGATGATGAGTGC; MOE gapmer, wing and gap sizes not given here)", "fL", 79),
]

Now, please, on to the next substance.
Item ISIS 416850: MOE gapmer, nucleobases 1275 to 1318 of SEQ ID NO: 1 (Table 8) (antisense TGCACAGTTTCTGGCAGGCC; MOE gapmer, wing and gap sizes not given here) has what recorded MCV?
80

----------
# Test system: human Factor 11 mRNA
# EXPERIMENT NOTES: Antisense inhibition of human Factor 11 in HepG2 cells, electroporation, 8,000 nM (Example 30)
# Type: cell-based
# MEASUREMENT CONDITIONS: electroporation, 8,000 nM antisense oligonucleotide
Strand notation (5' to 3'): a small letter for the sugar, then the base; units joined by * are phosphorothioate-linked, units joined directly phosphodiester-linked; [ ] holds rarer units or linkages, { } end groups; capitals alone tell only the bases. e = 2'-O-(2-methoxyethyl) (MOE); [5mC] = 5-methylcytosine; d = 2'-deoxy (DNA)
MEASURED METRIC: Percent inhibition of human Factor 11 mRNA levels (%)
Numbers only, in %.

Some solved entries appear below for comparison.
# SUBSTANCE, UNIT SYMBOL, OBSERVED MEASUREMENT
measured = [
    ("416859 (antisense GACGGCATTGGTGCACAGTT; 5-10-5 gapmer, further chemistry not given here) [compound 416859]", "%", 85),
    ("445514 (antisense eG*eG*e[5mC]*eA*eG*e[5mC]*dG*dG*dA*d[5mC]*dG*dG*d[5mC]*dA*eT*eT*eG*eG*eT*eG) [compound 445514]", "%", 81),
    ("445523 (antisense eT*eG*e[5mC]*eA*e[5mC]*dA*dG*dT*dT*dT*d[5mC]*dT*dG*eG*e[5mC]*eA*eG*eG) [compound 445523]", "%", 73),
    ("416857 (antisense e[5mC]*eG*eG*e[5mC]*eA*dT*dT*dG*dG*dT*dG*d[5mC]*dA*d[5mC]*dA*eG*eT*eT*eT*e[5mC]) [compound 416857]", "%", 91),
    ("445530 (antisense eG*e[5mC]*eA*eT*eT*dG*dG*dT*dG*d[5mC]*dA*d[5mC]*dA*eG*eT*eT*eT*e[5mC]) [compound 445530]", "%", 83),
    ("445499 (antisense eT*eG*eG*eT*eG*e[5mC]*dA*d[5mC]*dA*dG*dT*dT*dT*d[5mC]*eT*eG*eG*e[5mC]*eA*eG) [compound 445499]", "%", 75),
    ("445500 (antisense eT*eT*eG*eG*eT*eG*d[5mC]*dA*d[5mC]*dA*dG*dT*dT*dT*e[5mC]*eT*eG*eG*e[5mC]*eA) [compound 445500]", "%", 81),
    ("445520 (antisense eA*e[5mC]*eA*eG*eT*dT*dT*d[5mC]*dT*dG*dG*d[5mC]*dA*eG*eG*e[5mC]*e[5mC]*eT) [compound 445520]", "%", 82),
]

Batch: Percent inhibition of human Factor 11 mRNA levels for all items listed.
1. 445493 (antisense eA*e[5mC]*eA*eG*eT*eT*dT*d[5mC]*dT*dG*dG*d[5mC]*dA*dG*eG*e[5mC]*e[5mC]*eT*e[5mC]*eG) [compound 445493]
2. 416852 (antisense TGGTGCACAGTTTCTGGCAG; 5-10-5 gapmer, further chemistry not given here) [compound 416852]
3. 416849 (antisense eG*e[5mC]*eA*e[5mC]*eA*dG*dT*dT*dT*d[5mC]*dT*dG*dG*d[5mC]*dA*eG*eG*e[5mC]*e[5mC]*eT) [compound 416849]

1. 69
2. 87
3. 88
